The entries below come with measured pIC50 values attached.
Target: PGl2 receptor (Homo sapiens, UniProt P43119)
Construct: human blood platelet membrane fraction (0.3 mg protein) was added
Sequence (P43119 whole entry): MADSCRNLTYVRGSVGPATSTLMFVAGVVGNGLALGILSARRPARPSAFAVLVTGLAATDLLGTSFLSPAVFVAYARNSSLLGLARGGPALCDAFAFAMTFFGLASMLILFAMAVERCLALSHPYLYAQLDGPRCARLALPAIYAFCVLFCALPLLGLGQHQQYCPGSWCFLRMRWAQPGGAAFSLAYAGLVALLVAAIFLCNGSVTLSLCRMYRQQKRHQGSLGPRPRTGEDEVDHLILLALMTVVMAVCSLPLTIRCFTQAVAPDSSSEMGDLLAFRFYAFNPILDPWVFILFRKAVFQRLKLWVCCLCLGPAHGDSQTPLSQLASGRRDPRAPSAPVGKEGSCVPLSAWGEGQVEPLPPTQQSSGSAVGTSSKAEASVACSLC
Assay: Inhibitory activity on binding of ^3 H-iloprost to PGl2 receptor on human blood platelet membrane fraction
Settings: human blood platelet membrane fraction (0.3 mg protein), 10 nM [^3 H]-iloprost, pH 7.4, 24° C., 30 min; read-out: IC50 (inhibition of [^3 H]-iloprost binding to PGl2 receptor)
The value called pIC50 is obtained by taking minus log10 of the concentration in mol/L.

>>> df
                                   compound  property_label  measured_result
0  O=C(O)COc1cccc2c1CCC(CCC(=O)N(Cc1ccccc1)Cc1ccccc1)C2 (stereo not drawn) [3 (x)]           pIC50             5.57
1  O=C(O)COc1cccc2c1CCCC2CC(=O)NN(c1ccccc1)c1ccccc1 (stereo not drawn) [3 (j)]           pIC50             5.12
2  CN(CCC1CCc2c(cccc2OCC(=O)O)C1)C(=O)CN(c1ccccc1)c1ccccc1 (stereo not drawn) [10 (c)]           pIC50             5.89
3  O=C(O)COc1cccc2c1CCC(CCC(=O)NC(c1ccccc1)c1ccccc1)C2 (stereo not drawn) [3 (y)]           pIC50             5.74
4  O=C(O)COc1cccc2c1CCCC2CCC(=O)NC(Cc1ccccc1)c1ccccc1 (stereo not drawn) [3 (q)]           pIC50             5.17

Kindly review the next compound as well.
Data request, read-out pIC50, for O=C(O)COc1cccc2c1CCCC2CCC(=O)NN(c1ccccc1)c1ccccc1 (stereo not drawn) [3 (p)]
8.03
